RUN_DESCRIPTION: Serum AST and ALT in mice after 14 days of intragastric administration
Type: in vivo
CONDITION_PARAMETERS: mouse, in vivo, 60 mg/kg/day
Entries and their ALT
Answer in U/L, number only, no unit symbol.

Below, 5 molecules whose answers are already recorded.
MOLECULE	MEASURE_UNIT	ALT
COc1ccc2cc1Oc1ccc(cc1)CC1c3cc(c(OC)cc3CCN1C)Oc1c(OC(C)C)c(OC)cc3c1C(C2)N(C)CC3 (stereo not shown)	U/L	80.1
CCOc1c(OC)c(Br)c2c3c1Oc1cc4c(cc1OC)CCN(C)C4Cc1ccc(cc1)Oc1cc(c(Br)cc1OC)CC3N(C)CC2 (stereo not shown)	U/L	91.7
CCOc1c(OC)cc2c3c1Oc1cc4c(cc1OC)CCN(C)C4Cc1ccc(cc1)Oc1cc(ccc1OC)CC3N(C)CC2 (stereo not shown)	U/L	82.1
CCCCOc1c(OC)cc2c3c1Oc1cc4c(cc1OC)CCN(C)C4Cc1ccc(cc1)Oc1cc(ccc1OC)CC3N(C)CC2 (stereo not shown)	U/L	82.4
COc1ccc2cc1Oc1ccc(cc1)CC1c3cc(c(OC)cc3CCN1C)Oc1c(OC)c(OC)c(Cl)c3c1C(C2)N(C)CC3 (stereo not shown)	U/L	80.9

Report ALT for COc1cc(Br)c2cc1Oc1ccc(cc1)CC1c3cc(c(OC)cc3CCN1C)Oc1c(OC)c(OC)c(Br)c3c1C(C2)N(C)CC3 (stereo not shown) please.
87.2

Fill in: ALT of CCCOc1c(OC)cc2c3c1Oc1cc4c(cc1OC)CCN(C)C4Cc1ccc(cc1)Oc1cc(ccc1OC)CC3N(C)CC2 (stereo not shown) is ___
92.3

###

SYSTEM_NAME: GSK-3β (Homo sapiens)
Sequence (P49841 whole entry): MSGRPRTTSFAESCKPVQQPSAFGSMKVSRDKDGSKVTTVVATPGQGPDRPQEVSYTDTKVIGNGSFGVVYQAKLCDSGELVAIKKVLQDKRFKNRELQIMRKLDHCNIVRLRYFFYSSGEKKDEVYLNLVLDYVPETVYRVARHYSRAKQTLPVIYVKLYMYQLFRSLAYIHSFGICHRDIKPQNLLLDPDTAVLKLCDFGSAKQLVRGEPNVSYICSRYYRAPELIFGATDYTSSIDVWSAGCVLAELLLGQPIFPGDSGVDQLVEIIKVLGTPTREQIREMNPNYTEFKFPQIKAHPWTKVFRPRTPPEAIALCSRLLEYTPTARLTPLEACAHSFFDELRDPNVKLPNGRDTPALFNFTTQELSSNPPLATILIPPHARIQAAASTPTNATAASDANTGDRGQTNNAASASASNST
RUN_DESCRIPTION: GSK-3β activity assay (Z′-LYTE)
CONDITION_PARAMETERS: n = 3; read-out: Mean EC50 in the inhibition of GSK-3β activity
OBSERVABLE: EC50 (µM)
Your answer should be a plain number; it is taken to be in µM.

COMPOUND	MEASURE_UNIT	EC50
CCOc1c(OC)c(Br)c2c3c1Oc1cc4c(cc1OC)CCN(C)C4Cc1ccc(cc1)Oc1cc(c(Br)cc1OC)CC3N(C)CC2 (centres unmarked) [Compound 5, 5,14-dibromo-7-ethoxy fangchinoline]	µM	1.26

What EC50 value was documented for this compound, COc1ccc2cc1Oc1ccc(cc1)C[C@H]1c3cc(c(OC)cc3CCN1C)Oc1c(OC)c(OC)cc3c1[C@H](C2)N(C)CC3 [tetrandrine, reference compound] ?
9.02

Look up EC50 for this compound: COc1cc(Br)c2cc1Oc1ccc(cc1)CC1c3cc(c(OC)cc3CCN1C)Oc1c(OC)c(OC)c(Br)c3c1C(C2)N(C)CC3 (centres unmarked) [Compound 2, 5,14-dibromo-7-methoxy fangchinoline]
2.01

Look up EC50: COc1ccc2cc1Oc1ccc(cc1)CC1c3cc(c(OC)cc3CCN1C)Oc1c(OC(C)C)c(OC)cc3c1C(C2)N(C)CC3 (centres unmarked) [Compound 8, 7-isopropoxy fangchinoline]
1.35

# query: EC50 of entry COc1ccc2cc1Oc1ccc(cc1)CC1c3cc(c(OC)cc3CCN1C)Oc1c(OC)c(OC)c(Cl)c3c1C(C2)N(C)CC3 (centres unmarked) [Compound 1, 5-chloro-7-methoxy fangchinoline]
3.21
